Test: chemical genetic growth profiling, strain panel (AID 1159580);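 note: tested at 20 µM; growth read once vehicle control cultures reached saturation at 30 °C; 1 = growth at the plate median or of vehicle wells; lower values mean less growth of the strain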
Details: S. cerevisiae deletion strains, growth OD, locus YGR252W, strain gcn5, hits give low values
In all, about 5,500 compounds went through this assay and about 2,000 (36%) were called active. Another 18% or so got no clear call; they are omitted. This is one part of the list.
normalized growth values for the compounds below.
measurement.type: normalized growth

[[record]]
compound = "Oc1cccc2cccnc12"
value_reported = "0.152 (active)"

[[record]]
compound = "NC(=NCCCCCCN=C(N)N=C(N)Nc1ccc(Cl)cc1)N=C(N)Nc1ccc(Cl)cc1"
value_reported = "0.146 (active)"

[[record]]
compound = "CC(C)C1CCC(C(=O)N[C@@H](Cc2ccccc2)C(=O)O)CC1 (stereo partly drawn)"
value_reported = "0.994 (inactive)"

[[record]]
compound = "O=C(/C=C/c1ccc(O)cc1)c1ccc(O)cc1O"
value_reported = "0.935 (inactive)"

[[record]]
compound = "CON"
value_reported = "1.03 (inactive)"

[[record]]
compound = "CC(=O)NS(=O)(=O)c1ccc(N)cc1"
value_reported = "1.05 (inactive)"

[[record]]
compound = "O=C(/C=C/c1ccccc1)c1c(O)cc(O)cc1O"
value_reported = "0.972 (inactive)"

[[record]]
compound = "Cc1c(NC(C)C)c(=O)n(-c2ccccc2)n1C"
value_reported = "1.09 (inactive)"

[[record]]
compound = "OC[C@H]1O[C@@H](Oc2ccc(O)cc2)[C@H](O)[C@@H](O)[C@@H]1O"
value_reported = "1.02 (inactive)"

[[record]]
compound = "C=C[C@H]1CN2CC[C@H]1C[C@H]2[C@H](O)c1ccnc2ccccc12"
value_reported = "0.982 (inactive)"

[[record]]
compound = "CNC(C)(C)Cc1ccccc1"
value_reported = "1 (inactive)"

[[record]]
compound = "CC(C)Cn1c(=O)n(C)c(=O)c2[nH]cnc21"
value_reported = "0.955 (inactive)"

[[record]]
compound = "COc1ccc(/C=C/c2cc(O)cc(O[C@@H]3O[C@H](CO)[C@@H](O)[C@H](O)[C@H]3O)c2)cc1"
value_reported = "0.964 (inactive)"

[[record]]
compound = "CN1CCCCC1c1ccc(-c2cccnc2)nc1 (stereo not drawn)"
value_reported = "1.05 (inactive)"

[[record]]
compound = "CNC(C)[C@@H]1CC[C@@H](N)[C@@H](OC2[C@@H](N)C[C@@H](N)[C@H](OC3OC[C@](C)(O)[C@H](NC)[C@H]3O)[C@H]2O)O1 (stereo partly drawn)"
value_reported = "1.04 (inactive)"

[[record]]
compound = "COc1cc2c(cc1OC)C(C)NCC2 (stereo not drawn)"
value_reported = "0.996 (inactive)"

[[record]]
compound = "C=C(C)C1Cc2c(ccc(C(=O)O)c2O)O1 (stereo not drawn)"
value_reported = "0.871 (inactive)"

[[record]]
compound = "CC(C)c1cc2c(c(O)c1O)[C@@]1(C(=O)O)CCCC(C)(C)C1CC2 (stereo partly drawn)"
value_reported = "0.903 (inactive)"

[[record]]
compound = "CN(C)CCC[C@@]1(c2ccc(F)cc2)OCc2cc(C#N)ccc21"
value_reported = "1.06 (inactive)"

[[record]]
compound = "O=C(O)CCC(=O)OC[C@@H](NC(=O)C(Cl)Cl)[C@H](O)c1ccc([N+](=O)[O-])cc1"
value_reported = "1.07 (inactive)"

[[record]]
compound = "O=C(/C=C/c1ccccc1)c1ccc(O[C@@H]2O[C@H](CO)[C@@H](O)[C@H](O)[C@H]2O)cc1O"
value_reported = "0.79 (inactive)"

[[record]]
compound = "CN1CCN(C2=Nc3cc(Cl)ccc3Nc3ccccc32)CC1"
value_reported = "0.994 (inactive)"

[[record]]
compound = "N[C@@H](C(=O)N[C@@H]1C(=O)N2C(C(=O)O)=C(Cl)CS[C@H]12)c1ccccc1"
value_reported = "1.04 (inactive)"

